Where these numbers come from: patent US11241398B2

system: 8392B cell line; test: 48 hour exposure, growth or viability by Trypan Blue Exclusion assay, nontarget cell line; type: cell-based; settings: read-out: Mean IC50 value, 8392B Nontarget Cell Line, 48 hr exposure; 8392B nontarget cell line; 48 hr exposure; mean ± SD, N = 3 unless otherwise indicated
Provide the recorded pIC50 for the entries that follow.
Answers are plain numbers, as −log10 of the molar value.

The examples below pair each entry with its known result.
{"molecule": "CC1=C2C(=CC(C)(COC(=O)CCCC(=O)O)C2OC(=O)CCCC(=O)O)C(=O)C(C)(O)C12CC2 (centres unmarked) [Analog 117]", "observedProperty": "pIC50", "recordedMeasurement": 8.00}
{"molecule": "CC1=C(CSC[C@@H](C)C(=O)N2CCCC2C(=O)O)C2=C(C)C3(CC3)[C@@](C)(O)C(=O)C2=C1 (some centres unmarked) [Analog 098]", "observedProperty": "pIC50", "recordedMeasurement": 4.93}

Answer for every listed entry: what is its pIC50? The entries follow.
1. CC1=C2C(=CC(C)(C)[C@@H]2OC(=O)CCCCCN2C(=O)C=CC2=O)C(=O)[C@](C)(O)C12CC2 [Analog 218]
2. CC1=C(CCC(=O)OC2CCC3(C)C(CCC4C5CCC(=O)C5(C)CCC43)C2)C2=C(C)C3(CC3)[C@@](C)(O)C(=O)C2=C1 (some centres unmarked) [Analog 112]
3. CC1=C(CCC(=O)Oc2ccc3c(c2)CC[C@@H]2[C@@H]3CC[C@]3(C)C(=O)CC[C@@H]23)C2=C(C)C3(CC3)[C@@](C)(O)C(=O)C2=C1 [Analog 110]

Reply text:
6.22
5.28
4.60
